Target: T1, human CD276 protein (human, UniProt Q5ZPR3 29-534)
T1 sequence (looked up): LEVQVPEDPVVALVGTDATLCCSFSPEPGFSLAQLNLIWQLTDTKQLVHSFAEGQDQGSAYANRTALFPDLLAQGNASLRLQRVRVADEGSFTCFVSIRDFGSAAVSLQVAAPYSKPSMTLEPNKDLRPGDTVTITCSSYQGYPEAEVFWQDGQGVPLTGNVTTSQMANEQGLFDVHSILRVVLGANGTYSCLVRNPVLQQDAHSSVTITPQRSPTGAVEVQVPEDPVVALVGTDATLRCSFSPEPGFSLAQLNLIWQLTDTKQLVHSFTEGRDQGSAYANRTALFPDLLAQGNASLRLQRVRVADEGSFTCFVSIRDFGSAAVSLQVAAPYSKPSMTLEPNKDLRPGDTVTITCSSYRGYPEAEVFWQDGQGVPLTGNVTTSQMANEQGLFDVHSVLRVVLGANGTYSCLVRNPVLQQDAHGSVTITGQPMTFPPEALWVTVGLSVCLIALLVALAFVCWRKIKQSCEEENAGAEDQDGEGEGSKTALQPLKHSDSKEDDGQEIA
Assay: cell-based or functional assay
Recorded EC50 of antibody induced ADCC effect on SKOV3 values for a group of binders are listed next.
// unit must come after the numeric part

Example results:
binder	endpointResult
2-A7-B10-A3 (human IgG1 chimeric antibody) (antibody, V domains shown) VH: QVQLQQSGAELVRPGVSVKISCKGSGYTFTDYAMHWVKQSHAKSLEWIGVINTNYVNTSYNQKFKGKATMTVDKSSSTAFMELARLTSEDSAIYYCARGGKYGNYVFFFAYWGQGTLVTVSA VL: DIQMTQTTSSLSASLGDRVTISCRASQDISNYLNWYQQKPDGTVKLLIYYTSRLHSGVPSRFSGSGSGTDYSLTISNLEQEDIATYFCQQGNTLPYTFGGGTKLEIK	4.21 µg/mL
3-C2-C3-E7 (human IgG1 chimeric antibody) (antibody, V domains shown, human IgG1 chimeric antibody of the mouse clone) VH: EVQLQQSGPELVKPGASVKISCKTSGYTFTENTMHWVKQSHGKRLEWIGGINPNTGGTTYNQKFKGKATLTVDKSSSTAYMELRSLTSEDSAVYYCARRGTNWEHWYFDVWGAGTTVTVSS VL: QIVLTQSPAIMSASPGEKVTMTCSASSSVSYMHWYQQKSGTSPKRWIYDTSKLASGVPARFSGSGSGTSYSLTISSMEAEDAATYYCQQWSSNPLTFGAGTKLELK	0.186 µg/mL

Provide only the value of recorded EC50 of antibody induced ADCC effect on SKOV3 for 27-F8-E10-E11 (human IgG1 chimeric antibody) (antibody, V domains shown, human IgG1 chimeric antibody of the mouse clone) VH: EVQLQQSGPELVKPGASVKISCKTSGYTFTEYAMHWVKQSHGKILEWIGGINPNIGGTTYNQKFKDKATLTVDKSSSTASMELRSLTSEDSAVYYCARFLVPSTEGFTYWGQGTLVTVSA VL: QIVLTQSPAIMSASPGEKVTMTCSASSSVSYMHWYQQKSGTSPKRWIYDTSRVASGVPARFSGSGSGTSYSLTISSMEAEDAATYYCQQWSSNPLTFGAGTKLELK 0.0238 µg/mL
